assay.protocol: Stability in mouse serum assessed as half life
Format: ADME, cell-free
Bridge positions count the residues as written; N and C are the ends. Square brackets hold non-standard residues; d marks the D form. Peptide text beside a SMILES is read from it. Bip = N[C@@H](Cc1ccc(-c2ccccc2)cc1)C(=O)O; Sar = CNCC(=O)O
measured.attribute: half-life (min)

compound: CN1CC(=O)N[C@@H](CO)C(=O)N[C@@H](Cc2ccc(-c3ccccc3)cc2)C(=O)NCC(=O)N[C@@H](CCCNC(=N)N)C(=O)N[C@@H](CCCNC(=N)N)C(=O)N[C@@H](CCCNC(=N)N)C(=O)NCC(=O)N[C@H](C(=O)NCC(N)=O)CSCC(=O)N[C@@H](Cc2ccccc2)C(=O)N[C@@H](Cc2ccc(O)cc2)C1=O ({CH2CO}-FY[Sar]S[Bip]GRRRGCG-NH2; thioether N-11)
measured.attribute: half-life
result.value: 31
